molecular target: Metabotropic glutamate receptor 2 (Rattus norvegicus); assay: Displacement of [3H]LY354740 from rat mGluR2 expressed in CHO cells; type: cell-based
pIC50: −log10 of the molar value.
Answer label 0 if pIC50 is under 7, and label 1 if it is 7 or more.

smiles | qualitative-label
N#Cc1cccc(C2=Nc3ccc(C#Cc4ccc(F)cc4)cc3NC(=O)C2)c1 | label 1
COc1cccc(C2=Nc3ccc(C)cc3NC(=O)C2)c1 | label 0
N#Cc1cccc(C2=Nc3ccc(C#Cc4ccccc4)cc3NC(=O)C2)c1 | label 1
CC(C)(O)C#Cc1ccc2c(c1)NC(=O)CC(c1cccc(C#N)c1)=N2 | label 0
CN(C)c1cc2c(cc1C#Cc1ccccc1)NC(=O)CC(c1cccc(C#N)c1)=N2 | label 1
CN1CCN(C(=O)c2cccc(C3=Nc4ccc(C#Cc5ccccc5)cc4NC(=O)C3)c2)CC1 | label 0
N#Cc1cccc(C2=Nc3ccc(C#Cc4ccc(F)cc4F)cc3NC(=O)C2)c1 | label 0

* * *

molecular target: Metabotropic glutamate receptor 2 (Rattus norvegicus); assay: Displacement of [3H]LY354740 from rat mGluR2 expressed in CHO cells; type: cell-based

smiles | target | units-label | IC50
N#Cc1cccc(C2=Nc3cc(N4CCS(=O)(=O)CC4)c(C#Cc4ccccc4)cc3NC(=O)C2)c1 | Metabotropic glutamate receptor 2 (Rattus norvegicus) | nM | 160
NC(=O)c1cccc(C2=Nc3ccc(C#Cc4ccccc4)cc3NC(=O)C2)c1 | Metabotropic glutamate receptor 2 (Rattus norvegicus) | nM | 358
O=C1CC(c2ccccc2)=Nc2ccc(C#Cc3ccccc3)cc2N1 | Metabotropic glutamate receptor 2 (Rattus norvegicus) | nM | 26
N#Cc1cccc(C2=Nc3ccc(C#Cc4ccccn4)cc3NC(=O)C2)c1 | Metabotropic glutamate receptor 2 (Rattus norvegicus) | nM | 870

* * *

target: Metabotropic glutamate receptor 2 (Rattus norvegicus, UniProt P31421); assay: Displacement of [3H]LY354740 from rat mGluR2 expressed in CHO cells; assay type: cell-based
Sequence (P31421 whole entry): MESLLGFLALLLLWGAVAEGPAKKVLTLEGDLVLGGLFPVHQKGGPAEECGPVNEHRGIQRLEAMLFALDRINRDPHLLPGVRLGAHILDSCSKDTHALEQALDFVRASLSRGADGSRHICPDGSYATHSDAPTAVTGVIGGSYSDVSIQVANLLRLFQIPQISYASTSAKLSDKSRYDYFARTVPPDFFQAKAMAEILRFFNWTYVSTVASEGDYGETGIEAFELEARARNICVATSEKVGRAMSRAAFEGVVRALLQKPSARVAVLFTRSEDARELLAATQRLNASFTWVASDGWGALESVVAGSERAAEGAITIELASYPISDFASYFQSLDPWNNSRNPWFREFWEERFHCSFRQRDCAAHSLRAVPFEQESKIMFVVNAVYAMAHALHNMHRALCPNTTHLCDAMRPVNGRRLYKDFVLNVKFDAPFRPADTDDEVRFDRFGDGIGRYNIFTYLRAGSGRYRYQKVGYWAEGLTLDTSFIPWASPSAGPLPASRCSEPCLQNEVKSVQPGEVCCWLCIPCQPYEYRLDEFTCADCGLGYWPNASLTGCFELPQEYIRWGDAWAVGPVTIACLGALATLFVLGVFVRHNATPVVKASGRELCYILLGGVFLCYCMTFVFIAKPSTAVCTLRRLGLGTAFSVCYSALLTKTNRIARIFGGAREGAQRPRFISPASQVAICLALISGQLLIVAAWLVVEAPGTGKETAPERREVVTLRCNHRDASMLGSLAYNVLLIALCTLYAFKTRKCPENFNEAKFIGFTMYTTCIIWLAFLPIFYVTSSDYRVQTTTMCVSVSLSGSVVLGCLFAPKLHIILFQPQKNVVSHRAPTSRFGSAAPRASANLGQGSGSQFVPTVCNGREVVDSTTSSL
Overview of recorded IC50 for various molecules

smiles | IC50
COc1cc2c(cc1C#Cc1ccccc1)NC(=O)CC(c1cccc(C#N)c1)=N2 | 92 nM
COc1ccc(C#Cc2ccc3c(c2)NC(=O)CC(c2cccc(C#N)c2)=N3)cc1 | 68 nM
N#Cc1cccc(C2=Nc3ccc(C#Cc4ccccc4Cl)cc3NC(=O)C2)c1 | 76 nM

The reported measurements were obtained from ChEMBL document CHEMBL1138280.
